The measured values listed here are drawn from ChEMBL document CHEMBL6121058.

Assay: Half-life in cynomolgus monkey at 1 mg/kg, iv administered as single dose by LC-MS/MS analysis
Format: ADME, organism-based, Macaca fascicularis
Details: in vivo
Property label: half-life (h)

Molecule	Property label	Result units	Test value
C=CC(=O)N1CCN(c2c(C#N)c(=O)n(-c3c(C)ccnc3C(C)C)c3nc(-c4c(N)c(F)c(F)c(F)c4F)c(Cl)cc23)CC1 (atropisomer M)	half-life	h	3.48

* * *

Test: Efflux ratio of apparent permeability across basolateral to apical over apical to basolateral side in MDCK cells
Format: ADME, cell-based, Canis lupus familiaris
Conditions: dog

Compound	efflux ratio
C=CC(=O)N1CCN(c2c(C#N)c(=O)n(-c3c(C)ccnc3C(C)C)c3nc(-c4c(N)c(Cl)cc(Cl)c4F)c(Cl)cc23)CC1 (atropisomer M)	1.16

* * *

Test: C0 in male Sprague-Dawley rat at 3 mg/kg, iv administered as single dose by LC-MS/MS analysis
Type: ADME, organism-based
Conditions: in vivo

Molecule	C0 [µg/mL]
C=CC(=O)N1[C@H](C)CN(c2c(C#N)c(=O)n(-c3c(C)ccnc3C(C)C)c3nc(-c4c(O)cccc4F)c(F)cc23)C[C@@H]1C	4.05
C=CC(=O)N1CCN(c2c(C#N)c(=O)n(-c3c(C)ccnc3C(C)C)c3nc(-c4c(N)c(Cl)cc(Cl)c4F)c(F)cc23)CC1	1.45
C=CC(=O)N1CCN(c2c(C#N)c(=O)n(-c3c(C)ccnc3C(C)C)c3nc(-c4c(N)c(Cl)cc(Cl)c4F)c(Cl)cc23)CC1 (atropisomer M)	2.25
C=CC(=O)N1CCN(c2c(C#N)c(=O)n(-c3c(C)ccnc3C(C)C)c3nc(-c4c(F)c(F)c(F)c(N)c4Cl)c(Cl)cc23)CC1 (atropisomer M)	2.06
C=CC(=O)N1CCN(c2c(C#N)c(=O)n(-c3c(C)ccnc3C(C)C)c3nc(-c4c(O)cccc4F)c(F)cc23)CC1	2.44
C=CC(=O)N1CCN(c2c(C#N)c(=O)n(-c3c(C)ccnc3C(C)C)c3nc(-c4c(O)cccc4F)c(F)cc23)CC1CC#N (stereo not drawn)	1.16
C=CC(=O)N1CCN(c2c(C#N)c(=O)n(-c3c(C)ccnc3C(C)C)c3nc(-c4ccccc4F)c(F)cc23)CC1	2.21
C=CC(=O)N1CCN(c2c(C#N)c(=O)n(-c3c(C)ccnc3C(C)C)c3nc(-c4c(N)c(F)c(F)c(F)c4F)c(Cl)cc23)CC1 (atropisomer M) [GLECIRASIB]	1.34

* * *

Test: AUC (0 to 24 hrs) in male Beagle dog at 3 mg/kg, po administered as single dose by LC-MS/MS analysis
Assay type: ADME, organism-based, Canis lupus familiaris
Settings: in vivo
The entries below are paired with their reported AUC(0-t).
Property label: AUC(0-t) (ng·h/mL)

Compound	Property label	Test value
C=CC(=O)N1CCN(c2c(C#N)c(=O)n(-c3c(C)ccnc3C(C)C)c3nc(-c4c(F)c(F)c(F)c(N)c4Cl)c(Cl)cc23)CC1 (atropisomer M)	AUC(0-t)	397
C=CC(=O)N1CCN(c2c(C#N)c(=O)n(-c3c(C)ccnc3C(C)C)c3nc(-c4c(N)c(F)c(F)c(F)c4F)c(Cl)cc23)CC1 (atropisomer M)	AUC(0-t)	2240

* * *

Assay: C0 in cynomolgus monkey at 1 mg/kg, iv administered as single dose by LC-MS/MS analysis
Assay type: ADME, organism-based, Macaca fascicularis
Conditions: in vivo

Molecule	Result units	C0
C=CC(=O)N1CCN(c2c(C#N)c(=O)n(-c3c(C)ccnc3C(C)C)c3nc(-c4c(N)c(F)c(F)c(F)c4F)c(Cl)cc23)CC1 (atropisomer M) [GLECIRASIB]	ng/mL	2840

* * *

Test: Tmax in male Sprague-Dawley rat at 10 mg/kg, po administered as single dose by LC-MS/MS analysis
Type: ADME, organism-based
Conditions: in vivo
Property label: Tmax (h)

Compound	Test value
C=CC(=O)N1CCN(c2c(C#N)c(=O)n(-c3c(C)ccnc3C(C)C)c3nc(-c4c(O)cccc4F)c(F)cc23)CC1CC#N (stereo not drawn)	0.625
C=CC(=O)N1CCN(c2c(C#N)c(=O)n(-c3c(C)ccnc3C(C)C)c3nc(-c4c(N)c(F)c(F)c(F)c4F)c(Cl)cc23)CC1 (atropisomer M)	1.67
C=CC(=O)N1CCN(c2c(C#N)c(=O)n(-c3c(C)ccnc3C(C)C)c3nc(-c4c(O)cccc4F)c(F)cc23)CC1	1.67
C=CC(=O)N1CCN(c2c(C#N)c(=O)n(-c3c(C)ccnc3C(C)C)c3nc(-c4c(N)c(Cl)cc(Cl)c4F)c(F)cc23)CC1	1.17
C=CC(=O)N1CCN(c2c(C#N)c(=O)n(-c3c(C)ccnc3C(C)C)c3nc(-c4ccccc4F)c(F)cc23)CC1	1.5
C=CC(=O)N1[C@H](C)CN(c2c(C#N)c(=O)n(-c3c(C)ccnc3C(C)C)c3nc(-c4c(O)cccc4F)c(F)cc23)C[C@@H]1C	0.5
C=CC(=O)N1CCN(c2c(C#N)c(=O)n(-c3c(C)ccnc3C(C)C)c3nc(-c4c(N)c(Cl)cc(Cl)c4F)c(Cl)cc23)CC1 (atropisomer M)	2.67
C=CC(=O)N1CCN(c2c(C#N)c(=O)n(-c3c(C)ccnc3C(C)C)c3nc(-c4c(F)c(F)c(F)c(N)c4Cl)c(Cl)cc23)CC1 (atropisomer M)	3

* * *

Test: Half-life in male Sprague-Dawley rat at 3 mg/kg, iv administered as single dose by LC-MS/MS analysis
Type: ADME, organism-based
Conditions: in vivo
Property label: half-life (min)

Molecule	Result units	Test value
C=CC(=O)N1CCN(c2c(C#N)c(=O)n(-c3c(C)ccnc3C(C)C)c3nc(-c4c(O)cccc4F)c(F)cc23)CC1CC#N (centres undefined)	min	8.1
C=CC(=O)N1CCN(c2c(C#N)c(=O)n(-c3c(C)ccnc3C(C)C)c3nc(-c4c(O)cccc4F)c(F)cc23)CC1	min	21.5
C=CC(=O)N1CCN(c2c(C#N)c(=O)n(-c3c(C)ccnc3C(C)C)c3nc(-c4c(N)c(F)c(F)c(F)c4F)c(Cl)cc23)CC1 (atropisomer M)	min	51.4
C=CC(=O)N1CCN(c2c(C#N)c(=O)n(-c3c(C)ccnc3C(C)C)c3nc(-c4c(N)c(Cl)cc(Cl)c4F)c(Cl)cc23)CC1 (atropisomer M)	min	101

* * *

Assay: Protein binding in rat plasma
Format: ADME, cell-free
Details: read-out: PPB (converted)

Compound	fraction unbound
C=CC(=O)N1CCN(c2c(C#N)c(=O)n(-c3c(C)ccnc3C(C)C)c3nc(-c4c(N)c(F)c(F)c(F)c4F)c(Cl)cc23)CC1 (atropisomer M)	0.047

* * *

Reported values of AUC(0-t) for individual entries
Assay: AUC (0 to 24 hrs) in female BALB/c mouse at 10 mg/kg, po administered as single dose by LC-MS/MS analysis
Assay type: ADME, organism-based
Conditions: in vivo

Molecule	AUC(0-t)
C=CC(=O)N1CCN(c2c(C#N)c(=O)n(-c3c(C)ccnc3C(C)C)c3nc(-c4c(F)c(F)c(F)c(N)c4Cl)c(Cl)cc23)CC1 (atropisomer M)	1220 ng·h/mL
C=CC(=O)N1CCN(c2c(C#N)c(=O)n(-c3c(C)ccnc3C(C)C)c3nc(-c4c(N)c(Cl)cc(Cl)c4F)c(Cl)cc23)CC1 (atropisomer M)	6310 ng·h/mL
C=CC(=O)N1CCN(c2c(C#N)c(=O)n(-c3c(C)ccnc3C(C)C)c3nc(-c4c(N)c(F)c(F)c(F)c4F)c(Cl)cc23)CC1 (atropisomer M)	2420 ng·h/mL
C=CC(=O)N1CCN(c2c(C#N)c(=O)n(-c3c(C)ccnc3C(C)C)c3nc(-c4c(N)cccc4F)c(Cl)cc23)CC1	207 ng·h/mL

* * *

Assay: Clearance in cynomolgus monkey at 1 mg/kg, iv administered as single dose by LC-MS/MS analysis
Assay type: ADME, organism-based, Macaca fascicularis
Settings: in vivo
Property label: clearance (mL/min/kg)

Compound	Test value
C=CC(=O)N1CCN(c2c(C#N)c(=O)n(-c3c(C)ccnc3C(C)C)c3nc(-c4c(N)c(F)c(F)c(F)c4F)c(Cl)cc23)CC1 (atropisomer M) [GLECIRASIB]	6.22

* * *

Collected clearance values appear next to each entry.
Assay: Clearance in male Sprague-Dawley rat at 3 mg/kg, iv administered as single dose by LC-MS/MS analysis
Type: ADME, organism-based
Details: in vivo
Property label: clearance (mL/min/kg)

Molecule	Property label	Result units	Test value
C=CC(=O)N1CCN(c2c(C#N)c(=O)n(-c3c(C)ccnc3C(C)C)c3nc(-c4c(N)c(F)c(F)c(F)c4F)c(Cl)cc23)CC1 (atropisomer M)	clearance	mL/min/kg	70.5
C=CC(=O)N1[C@H](C)CN(c2c(C#N)c(=O)n(-c3c(C)ccnc3C(C)C)c3nc(-c4c(O)cccc4F)c(F)cc23)C[C@@H]1C	clearance	mL/min/kg	35
C=CC(=O)N1CCN(c2c(C#N)c(=O)n(-c3c(C)ccnc3C(C)C)c3nc(-c4c(N)c(Cl)cc(Cl)c4F)c(Cl)cc23)CC1 (atropisomer M)	clearance	mL/min/kg	41.2
C=CC(=O)N1CCN(c2c(C#N)c(=O)n(-c3c(C)ccnc3C(C)C)c3nc(-c4c(N)c(Cl)cc(Cl)c4F)c(F)cc23)CC1	clearance	mL/min/kg	51
C=CC(=O)N1CCN(c2c(C#N)c(=O)n(-c3c(C)ccnc3C(C)C)c3nc(-c4ccccc4F)c(F)cc23)CC1	clearance	mL/min/kg	74.6
C=CC(=O)N1CCN(c2c(C#N)c(=O)n(-c3c(C)ccnc3C(C)C)c3nc(-c4c(O)cccc4F)c(F)cc23)CC1	clearance	mL/min/kg	86.3
C=CC(=O)N1CCN(c2c(C#N)c(=O)n(-c3c(C)ccnc3C(C)C)c3nc(-c4c(F)c(F)c(F)c(N)c4Cl)c(Cl)cc23)CC1 (atropisomer M)	clearance	mL/min/kg	68.3
C=CC(=O)N1CCN(c2c(C#N)c(=O)n(-c3c(C)ccnc3C(C)C)c3nc(-c4c(O)cccc4F)c(F)cc23)CC1CC#N (stereo not drawn)	clearance	mL/min/kg	277
